- test protocol: Affinity for phosphatidyl serine (EIA, inhibition of human Factor VIII binding)
- reported conditions: class of IC50 for inhibiting human Factor VIII binding, 5% BSA
pIC50: −log10 of the molar value.

>  <substance>
SEQ ID NO: 23: deletion mutant of the peptide of SEQ ID NO:1 (TIHPRSWVHQIALRLRYLRIHPRSWVHQIAS; synthetic peptide using an automatic peptide synthesizer)

>  <pIC50>
> 6.00

$$$$
>  <substance>
SEQ ID NO: 8: peptide of SEQ ID NO:1 with one or two locations substituted in the 18 amino acid sequence (TRYLRIHPKSWVHQIALRLRYLKIHPRSWVHQIALRS; synthetic peptide using an automatic peptide synthesizer)

>  <pIC50>
5.00 to 6.00

$$$$

* * *

- test protocol: Affinity for phosphatidyl serine (EIA, inhibition of human Factor VIII binding)
- reported conditions: class of IC50 for inhibiting human Factor VIII binding, 5% BSA
pIC50: −log10 of the molar value.
# pIC50 listing for each entry below

>  <substance>
SEQ ID NO: 5: peptide of SEQ ID NO:1 with one or two locations substituted in the 18 amino acid sequence (TRFLRIHPRSWVHQIALRLRFLRIHPRSWVHQIALRS; synthetic peptide using an automatic peptide synthesizer)

>  <pIC50>
> 6.00

$$$$
>  <substance>
SEQ ID NO: 15: peptide of SEQ ID NO:1 with one or two locations substituted in the 18 amino acid sequence (TRYLRIRPRSWVRQIALRLRYLRIRPRSWVRQIALRS; synthetic peptide using an automatic peptide synthesizer)

>  <pIC50>
> 6.00

$$$$
>  <substance>
SEQ ID NO: 17: peptide of SEQ ID NO:1 with one or two locations substituted in the 18 amino acid sequence (TRSLRIHPRLWVHQIALRLRSLRIHPRLWVHQIALRS; synthetic peptide using an automatic peptide synthesizer)

>  <pIC50>
> 6.00

$$$$
>  <substance>
SEQ ID NO: 11: peptide of SEQ ID NO:1 with one or two locations substituted in the 18 amino acid sequence (TRYLRIHPRLWVHQIALRLRYLRIHPRLWVHQIALRS; synthetic peptide using an automatic peptide synthesizer)

>  <pIC50>
5.00 to 6.00

$$$$

* * *

# pIC50 listing for each entry below
- test protocol: Affinity for phosphatidyl serine (EIA, inhibition of human Factor VIII binding)
- reported conditions: class of IC50 for inhibiting human Factor VIII binding, 5% BSA
pIC50: −log10 of the molar value.
reported property: pIC50

>  <substance>
SEQ ID NO: 1: peptide having the amino acid sequence of SEQ ID NO:1, made by solid phase synthesis (TRYLRIHPRSWVHQIALRLRYLRIHPRSWVHQIALRS; synthetic peptide using an automatic peptide synthesizer)

>  <reported property>
pIC50

>  <reported measurement>
> 6.00

$$$$
>  <substance>
SEQ ID NO: 2: peptide of SEQ ID NO:1 with one or two locations substituted in the 18 amino acid sequence (TRYLRIHPRSWVRQIALRLRYLRIHPRSWVRQIALRS; synthetic peptide using an automatic peptide synthesizer)

>  <reported property>
pIC50

>  <reported measurement>
> 6.00

$$$$

* * *

- test protocol: Affinity for phosphatidyl serine (EIA, inhibition of human Factor VIII binding)
- reported conditions: class of IC50 for inhibiting human Factor VIII binding, 5% BSA
reported property: IC50

>  <substance>
SEQ ID NO: 10: peptide of SEQ ID NO:1 with one or two locations substituted in the 18 amino acid sequence (TRSLRIHPRSWVHQIALRLRSLRIHPRSWVHQIALRS; synthetic peptide using an automatic peptide synthesizer)

>  <reported measurement>
1000 to 10000 nM

$$$$
>  <substance>
SEQ ID NO: 3: peptide of SEQ ID NO:1 with one or two locations substituted in the 18 amino acid sequence (TRYLRIHPRSWVHQIRLRLRYLRIHPRSWVHQIRLRS; synthetic peptide using an automatic peptide synthesizer)

>  <reported measurement>
< 1000 nM

$$$$
>  <substance>
SEQ ID NO: 6: peptide of SEQ ID NO:1 with one or two locations substituted in the 18 amino acid sequence (TRYLRIHPRSWVHNIALRLRYLRIHPRSWVHNIALRS; synthetic peptide using an automatic peptide synthesizer)

>  <reported measurement>
< 1000 nM

$$$$
>  <substance>
SEQ ID NO: 19: peptide of SEQ ID NO:1 with three locations substituted in the 18 amino acid sequence; preferred peptide (TRYLRLHPRSWLHQLALRLRYLRLHPRSWLHQLALRS; synthetic peptide using an automatic peptide synthesizer)

>  <reported measurement>
< 1000 nM

$$$$
>  <substance>
SEQ ID NO: 7: peptide of SEQ ID NO:1 with one or two locations substituted in the 18 amino acid sequence (TRYLRIHPRSWVHQIALKLKYLRIHPRSWVHQIALRS; synthetic peptide using an automatic peptide synthesizer)

>  <reported measurement>
1000 to 10000 nM

$$$$
